Biological target: Serine/threonine-protein kinase B-raf (Homo sapiens, UniProt P15056, V600E)
Sequence (P15056 2-766 V600E limits assumed): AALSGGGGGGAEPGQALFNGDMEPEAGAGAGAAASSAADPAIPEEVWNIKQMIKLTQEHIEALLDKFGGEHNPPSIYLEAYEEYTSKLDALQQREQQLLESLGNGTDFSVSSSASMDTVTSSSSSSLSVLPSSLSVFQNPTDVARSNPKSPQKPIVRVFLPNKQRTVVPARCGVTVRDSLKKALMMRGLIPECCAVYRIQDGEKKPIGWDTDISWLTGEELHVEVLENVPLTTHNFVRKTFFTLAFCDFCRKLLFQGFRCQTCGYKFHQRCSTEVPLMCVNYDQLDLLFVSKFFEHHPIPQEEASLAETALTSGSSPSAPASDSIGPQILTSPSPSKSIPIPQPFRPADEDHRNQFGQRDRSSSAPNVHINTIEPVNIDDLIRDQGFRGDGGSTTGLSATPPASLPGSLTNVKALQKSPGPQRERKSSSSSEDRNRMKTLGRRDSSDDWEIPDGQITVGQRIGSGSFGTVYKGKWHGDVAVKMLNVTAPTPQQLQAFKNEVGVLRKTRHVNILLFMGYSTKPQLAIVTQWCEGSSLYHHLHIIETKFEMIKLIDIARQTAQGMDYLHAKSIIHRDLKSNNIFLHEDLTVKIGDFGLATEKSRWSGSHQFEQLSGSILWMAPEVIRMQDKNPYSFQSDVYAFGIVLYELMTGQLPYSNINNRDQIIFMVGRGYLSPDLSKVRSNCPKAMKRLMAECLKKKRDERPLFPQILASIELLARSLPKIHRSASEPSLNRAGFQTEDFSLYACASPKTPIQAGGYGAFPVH
Attribute: pIC50
As a rule, pIC50 stands for the negative log10 of the concentration, concentration in M.

// below: answered compounds
CHEMICAL_STRUCTURE | MEASURED_TARGET | pIC50
CCCS(=O)(=O)Nc1ccc(F)c(C(=O)Nc2cnc3cc(NC)nn3c2)c1F | Serine/threonine-protein kinase B-raf (Homo sapiens, UniProt P15056, V600E) | 6.42
CCCS(=O)(=O)Nc1ccc(F)c(C(=O)Nc2cnc3cc(C4CC4)nn3c2)c1F | Serine/threonine-protein kinase B-raf (Homo sapiens, UniProt P15056, V600E) | 6.52
CCCS(=O)(=O)Nc1ccc(F)c(C(=O)Nc2cnc3cc(OCC)nn3c2)c1F | Serine/threonine-protein kinase B-raf (Homo sapiens, UniProt P15056, V600E) | 6.69
CCCS(=O)(=O)Nc1ccc(F)c(C(=O)Nc2cnc3cc(NC(C)C)nn3c2)c1F | Serine/threonine-protein kinase B-raf (Homo sapiens, UniProt P15056, V600E) | 6.40

Let's switch to this compound now.
## Input Would you mind telling me what pIC50 value was observed for CCCS(=O)(=O)Nc1ccc(F)c(C(=O)Nc2cnc3cc(C4CCCC4)nn3c2)c1F ?
## Output 6.35
